The values you see were collected from patent US20200407433A1.

Biological target: T1, human Calcitonin Gene-Related Peptide (CGRP) (human, not fully specified)
T1 construct: also called hCGRP; Human CGRP
T1 peptide: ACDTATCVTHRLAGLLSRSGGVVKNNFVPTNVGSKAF
Assay: SPR Biacore 8k; antibody amine-coupled to chip, CGRP as analyte
Reported kon values for the following binders.
Lab book: enter the figure in M⁻¹ s⁻¹, no units written.

Prompt line: Param item = murine-human chimeric IgG4 derived from murine antibody A3 (antibody, V domains shown, also called chimeric antibody) VH: EVQLQQSGPELVKPGASVKISCKASGYTFTDYYMNWVKQSHGKSLEWIGDVNPNNGGTHYNQKFKGKATLTVDKSSSTAYMELRSLTSEDSAVYYCASITIVPVYFDFWGQGTTLTVSS VL: DIVMTQSQKFMSTSVGDRVSVTCKASQNVGPNVAWYRQKPGQSPKALIYSASYRYSGVPDRFTGSGSGTDFTLTISNVQSEDLADYICQQYNYYPYTFGGGTKLEIKR ; retrieve measured kon.
Response line: 3.37e+06

Prompt line: Param item = REMD 128.3 (antibody, human IgG4 S228P, kappa, V domains shown, Humanized full-length IgG (IgG4 constant region, kappa); also called IgG 14 (H4/L2); 14 (H4/L2)) VH: QVQLVQSGAEVVKPGASVKISCKASGYTFTDYYMNWVKQAPGQGLEWIGDVNPNNGGTHYNQKFKGRATLTVDTSISTAYMELSRLRSDDTAVYYCASITIVPVYFDFWGQGTLLTVSS VL: DIQLTQSPSFLSASVGDRVTITCKASQNVGPNVAWYRQKPGKAPKALIYSASYRYSGVPSRFSGSGSGTEFTLTISSLQPEDFATYICQQYNYYPYTFGQGTKLEIKR ; retrieve measured kon.
Response line: 4.55e+06
